These compounds were tested on Acetylcholine-binding protein (Lymnaea stagnalis, UniProt P58154); log10 Ki is the recorded read-out.
Sequence (P58154 whole entry): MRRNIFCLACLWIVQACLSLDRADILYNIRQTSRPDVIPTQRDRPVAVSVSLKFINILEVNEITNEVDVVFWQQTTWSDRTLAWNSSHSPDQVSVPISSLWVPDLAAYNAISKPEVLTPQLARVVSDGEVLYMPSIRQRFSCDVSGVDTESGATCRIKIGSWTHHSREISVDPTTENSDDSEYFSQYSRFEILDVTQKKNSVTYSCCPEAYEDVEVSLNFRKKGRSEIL
A value of 2 here means Ki of 100 in nM, since values are log10.

O=C(O[C@H]1C[C@H]2CC[C@@H](C1)N2CCc1cccc(O)c1)c1ccccc1	2.00
O=C(O[C@H]1C[C@H]2CC[C@@H](C1)N2)c1ccccc1	2.90
CN1[C@@H]2CC[C@H]1C[C@H](OC(=O)c1ccccc1)C2	3.80
O=C(O[C@@H]1C[C@H]2CC[C@@H](C1)N2)c1ccccc1	3.90
C[N+]1(C)[C@@H]2CC[C@H]1C[C@@H](OC1c3ccccc3CCc3ccccc31)C2	2.50
O=C(O[C@H]1C[C@H]2CC[C@@H](C1)N2CC(O)c1cccc(O)c1)c1ccccc1 (some centres undefined)	2.90
c1ccc(CCN2[C@@H]3CC[C@H]2C[C@@H](OC2c4ccccc4CCc4ccccc42)C3)cc1	2.00
C[N+]1(CCc2ccccc2)[C@@H]2CC[C@H]1C[C@@H](OC1c3ccccc3CCc3ccccc31)C2 (some centres undefined)	1.60

Next item in the queue.
Problem: Item c1ccc(CN2[C@@H]3CC[C@H]2C[C@@H](OC2c4ccccc4CCc4ccccc42)C3)cc1 with Acetylcholine-binding protein (Lymnaea stagnalis, UniProt P58154) - log10 Ki?
Result: 2.40

====

# tgt: Neuronal acetylcholine receptor; alpha4/beta2 (Homo sapiens, UniProt P17787+P43681)
# Sequence (P17787 whole entry): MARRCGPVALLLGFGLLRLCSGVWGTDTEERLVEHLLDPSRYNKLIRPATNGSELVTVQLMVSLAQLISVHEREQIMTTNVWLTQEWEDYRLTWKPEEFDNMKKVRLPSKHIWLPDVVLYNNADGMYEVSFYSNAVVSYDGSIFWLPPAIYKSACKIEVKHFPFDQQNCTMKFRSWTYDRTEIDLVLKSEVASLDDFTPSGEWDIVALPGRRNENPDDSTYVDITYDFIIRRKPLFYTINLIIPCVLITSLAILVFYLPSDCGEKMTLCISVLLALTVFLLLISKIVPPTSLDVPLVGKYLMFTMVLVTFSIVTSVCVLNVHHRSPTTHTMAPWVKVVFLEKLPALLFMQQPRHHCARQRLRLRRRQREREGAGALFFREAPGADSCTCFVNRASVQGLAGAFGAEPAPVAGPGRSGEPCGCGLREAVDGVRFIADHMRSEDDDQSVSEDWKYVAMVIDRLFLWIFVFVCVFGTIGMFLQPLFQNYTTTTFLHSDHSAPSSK
# Sequence (P43681 whole entry): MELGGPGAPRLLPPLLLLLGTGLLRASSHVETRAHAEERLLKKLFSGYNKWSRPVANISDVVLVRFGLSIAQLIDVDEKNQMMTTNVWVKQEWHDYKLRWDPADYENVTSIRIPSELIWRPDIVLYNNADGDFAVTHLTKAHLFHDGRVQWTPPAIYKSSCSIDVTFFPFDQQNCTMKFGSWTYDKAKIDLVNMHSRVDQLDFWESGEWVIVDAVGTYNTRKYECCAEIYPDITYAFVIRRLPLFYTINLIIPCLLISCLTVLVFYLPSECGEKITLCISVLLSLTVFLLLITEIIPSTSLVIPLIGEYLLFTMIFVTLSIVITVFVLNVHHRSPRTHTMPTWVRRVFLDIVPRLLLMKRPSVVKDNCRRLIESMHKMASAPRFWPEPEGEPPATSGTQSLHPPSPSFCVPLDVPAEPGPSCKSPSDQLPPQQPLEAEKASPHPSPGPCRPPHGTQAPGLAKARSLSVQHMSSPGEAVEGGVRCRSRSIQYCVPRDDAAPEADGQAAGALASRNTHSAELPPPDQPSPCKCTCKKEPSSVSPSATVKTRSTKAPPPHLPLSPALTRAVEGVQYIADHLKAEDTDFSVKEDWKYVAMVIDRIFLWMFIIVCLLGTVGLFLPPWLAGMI
# test-method-notes: Displacement of [3H]epibatidine from human nAChR alpha4beta2 receptor expressed in human HEK293T cells by scintillation counting
pKi: −log10 of the molar value.
property-measured: pKi

O=C(O[C@H]1C[C@H]2CC[C@@H](C1)N2CC(O)c1cccc(O)c1)c1ccccc1 (stereo partly drawn)	< 4.50

Problem: Item Oc1cccc(C(O)CN2[C@@H]3CC[C@H]2C[C@@H](OC2c4ccccc4CCc4ccccc42)C3)c1 (mixture of isomers) with Neuronal acetylcholine receptor; alpha4/beta2 (Homo sapiens, UniProt P17787+P43681) - pKi?
Result: < 4.50

Problem: Item O=C(O[C@H]1C[C@H]2CC[C@@H](C1)N2)c1ccccc1 with Neuronal acetylcholine receptor; alpha4/beta2 (Homo sapiens, UniProt P17787+P43681) - pKi?
Result: < 4.50

====

# tgt: Soluble acetylcholine receptor (Aplysia californica, UniProt Q8WSF8)
# Sequence (Q8WSF8 whole entry): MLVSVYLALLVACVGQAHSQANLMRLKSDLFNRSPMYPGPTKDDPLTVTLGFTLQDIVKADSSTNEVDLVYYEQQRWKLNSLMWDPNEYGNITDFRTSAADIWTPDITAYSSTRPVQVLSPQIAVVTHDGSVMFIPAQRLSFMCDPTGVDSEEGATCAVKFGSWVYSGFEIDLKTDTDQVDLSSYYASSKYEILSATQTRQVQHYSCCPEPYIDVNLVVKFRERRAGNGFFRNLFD
Quick list: pKi per entry.
// pKi is dimensionless: -log10 of concentration (M)

Recorded pKi, per entry:
O=C(O[C@H]1C[C@H]2CC[C@@H](C1)N2CCc1ccccc1)c1ccccc1	7.50
c1ccc(CN2[C@@H]3CC[C@H]2C[C@@H](OC2c4ccccc4CCc4ccccc42)C3)cc1	5.00

Problem: Item C[N+]1(CCc2ccccc2)[C@@H]2CC[C@H]1C[C@@H](OC(=O)c1ccccc1)C2 (stereo not given in full) with Soluble acetylcholine receptor (Aplysia californica, UniProt Q8WSF8) - pKi?
Result: 6.80

Problem: Item CN1[C@@H](CC(=O)c2ccccc2)CCC[C@H]1C[C@H](O)c1ccccc1 with Soluble acetylcholine receptor (Aplysia californica, UniProt Q8WSF8) - pKi?
Result: 8.60

Problem: Item O=C(O[C@@H]1C[C@H]2CC[C@@H](C1)N2)c1ccccc1 with Soluble acetylcholine receptor (Aplysia californica, UniProt Q8WSF8) - pKi?
Result: 4.80
